Recorded values, source the supplement of paper PMC4121296.

tested on: Danio rerio embryo (fli1:egfp); assay: heart rate at 72 hpf (beats per minute); higher = faster heart rate; settings: 0.39 µM; exposure: 5-72 hpf
Reported heart rate at 72 hpf values for a set of compounds
Would you mind answering with just the numeric figure?

# compound, heart rate at 72 hpf
records = [
    ("CC1(C)C(C(=O)OC(C#N)c2cccc(Oc3ccccc3)c2)C1(C)C (stereo not given)", 192),
    ("CCN(Cc1c(F)cccc1Cl)c1c([N+](=O)[O-])cc(C(F)(F)F)cc1[N+](=O)[O-]", 176),
    ("CC1(C)C(C=C(Cl)Cl)C1C(=O)OC(C#N)c1ccc(F)c(Oc2ccccc2)c1 (stereo not given)", 193),
    ("CO/N=C(/C(=O)OC)c1ccccc1CO/N=C(\\C)c1cccc(C(F)(F)F)c1", 173),
]

Now consider a different compound.
Task item: Please report heart rate at 72 hpf for the following compound: `N#Cc1c(Cl)c(Cl)c(Cl)c(C#N)c1Cl`
Reply: 153
